System: CYP3A4/2C19
assay.info: clinical
run.parameters: human, in vivo, 750 mg
assay.endpoint: half-life (min)
Answers are plain numbers, in min.

Incoming: Provide measured half-life value, entry: "C=C(C)[C@@H]1CCC(C)=C[C@H]1c1c(O)cc(CCCCC)cc1O"
Outgoing: 1950

====

experimental.system: UniProtKB P33261
Sequence (P33261 whole entry): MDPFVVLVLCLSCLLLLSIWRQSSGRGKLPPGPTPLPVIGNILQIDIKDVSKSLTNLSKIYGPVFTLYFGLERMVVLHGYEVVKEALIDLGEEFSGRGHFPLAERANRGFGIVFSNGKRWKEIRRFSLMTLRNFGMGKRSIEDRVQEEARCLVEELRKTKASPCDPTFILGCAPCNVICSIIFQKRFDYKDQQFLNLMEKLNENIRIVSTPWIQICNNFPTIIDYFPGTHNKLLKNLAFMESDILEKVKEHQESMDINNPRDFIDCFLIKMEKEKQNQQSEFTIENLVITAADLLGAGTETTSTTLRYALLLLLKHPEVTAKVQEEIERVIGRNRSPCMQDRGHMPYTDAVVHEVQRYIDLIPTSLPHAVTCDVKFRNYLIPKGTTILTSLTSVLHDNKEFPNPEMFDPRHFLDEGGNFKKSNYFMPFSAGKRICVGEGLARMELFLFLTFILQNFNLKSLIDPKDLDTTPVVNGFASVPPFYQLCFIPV
assay.info: clinical
run.parameters: in vivo, 750 mg
assay.endpoint: half-life (h)
Numbers only, in h.

Incoming: Provide measured half-life value, entry: "C=C(C)[C@@H]1CCC(C)=C[C@H]1c1c(O)cc(CCCCC)cc1O"
Outgoing: 51.2

====

experimental.system: CYP3A4 (Homo sapiens, UniProt P08684)
Sequence (P08684 whole entry): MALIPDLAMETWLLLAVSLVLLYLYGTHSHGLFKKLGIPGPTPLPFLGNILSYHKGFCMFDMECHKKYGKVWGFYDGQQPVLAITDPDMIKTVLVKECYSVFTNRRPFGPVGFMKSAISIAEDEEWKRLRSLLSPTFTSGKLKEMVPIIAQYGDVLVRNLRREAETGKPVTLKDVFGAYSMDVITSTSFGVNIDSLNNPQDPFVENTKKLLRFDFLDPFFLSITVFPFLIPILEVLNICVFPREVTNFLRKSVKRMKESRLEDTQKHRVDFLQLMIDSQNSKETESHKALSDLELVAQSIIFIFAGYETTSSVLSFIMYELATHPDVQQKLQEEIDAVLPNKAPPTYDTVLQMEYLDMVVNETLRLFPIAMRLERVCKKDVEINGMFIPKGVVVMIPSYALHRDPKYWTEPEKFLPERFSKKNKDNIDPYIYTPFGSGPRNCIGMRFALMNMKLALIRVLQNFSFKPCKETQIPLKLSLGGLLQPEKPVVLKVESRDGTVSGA
assay.info: clinical
run.parameters: in vivo, t ½
assay.endpoint: half-life (h)
Numbers only, in h.

Incoming: Provide measured half-life value, entry: "Cc1ncc2n1-c1ccc(Cl)cc1C(c1ccccc1F)=NC2"
Outgoing: 4.99
